Every entry's value here was drawn from paper PMC2956102.

- assayed_system: intestinal sucrase (Rattus norvegicus, UniProt P23739)
- Construct: 100 mg of rat intestinal acetone powder was homogenized in 3 mL of 0.9% NaCl solution; tissue Sigma Chemical Co. Ltd. (St. Louis, MO); host or cells: rat intestine (acetone powder, supernatant of the saline homogenate)
- Sequence (P23739 1014-1841 limits assumed): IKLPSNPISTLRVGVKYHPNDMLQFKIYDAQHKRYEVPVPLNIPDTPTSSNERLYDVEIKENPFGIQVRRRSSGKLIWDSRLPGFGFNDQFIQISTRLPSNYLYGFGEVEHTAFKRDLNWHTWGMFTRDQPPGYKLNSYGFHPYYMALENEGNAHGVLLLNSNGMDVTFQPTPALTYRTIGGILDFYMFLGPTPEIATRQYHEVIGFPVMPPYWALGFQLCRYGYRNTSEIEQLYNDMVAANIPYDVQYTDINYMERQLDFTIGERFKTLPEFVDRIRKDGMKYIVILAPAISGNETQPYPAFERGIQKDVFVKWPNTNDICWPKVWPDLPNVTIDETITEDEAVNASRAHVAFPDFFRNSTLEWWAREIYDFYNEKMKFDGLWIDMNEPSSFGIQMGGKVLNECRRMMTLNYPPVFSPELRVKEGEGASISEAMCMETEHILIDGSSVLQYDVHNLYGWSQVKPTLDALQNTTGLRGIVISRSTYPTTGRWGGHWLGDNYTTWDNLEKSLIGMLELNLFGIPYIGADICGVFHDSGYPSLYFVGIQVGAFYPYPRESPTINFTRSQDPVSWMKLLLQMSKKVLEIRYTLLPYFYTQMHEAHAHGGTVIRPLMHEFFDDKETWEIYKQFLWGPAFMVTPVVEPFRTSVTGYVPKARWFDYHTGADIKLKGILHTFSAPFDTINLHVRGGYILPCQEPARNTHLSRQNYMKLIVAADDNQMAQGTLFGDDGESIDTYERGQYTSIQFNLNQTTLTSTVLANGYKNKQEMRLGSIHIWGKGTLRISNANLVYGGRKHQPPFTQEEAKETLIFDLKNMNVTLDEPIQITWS
- Sequence (P23739 2-1013 partner limits assumed): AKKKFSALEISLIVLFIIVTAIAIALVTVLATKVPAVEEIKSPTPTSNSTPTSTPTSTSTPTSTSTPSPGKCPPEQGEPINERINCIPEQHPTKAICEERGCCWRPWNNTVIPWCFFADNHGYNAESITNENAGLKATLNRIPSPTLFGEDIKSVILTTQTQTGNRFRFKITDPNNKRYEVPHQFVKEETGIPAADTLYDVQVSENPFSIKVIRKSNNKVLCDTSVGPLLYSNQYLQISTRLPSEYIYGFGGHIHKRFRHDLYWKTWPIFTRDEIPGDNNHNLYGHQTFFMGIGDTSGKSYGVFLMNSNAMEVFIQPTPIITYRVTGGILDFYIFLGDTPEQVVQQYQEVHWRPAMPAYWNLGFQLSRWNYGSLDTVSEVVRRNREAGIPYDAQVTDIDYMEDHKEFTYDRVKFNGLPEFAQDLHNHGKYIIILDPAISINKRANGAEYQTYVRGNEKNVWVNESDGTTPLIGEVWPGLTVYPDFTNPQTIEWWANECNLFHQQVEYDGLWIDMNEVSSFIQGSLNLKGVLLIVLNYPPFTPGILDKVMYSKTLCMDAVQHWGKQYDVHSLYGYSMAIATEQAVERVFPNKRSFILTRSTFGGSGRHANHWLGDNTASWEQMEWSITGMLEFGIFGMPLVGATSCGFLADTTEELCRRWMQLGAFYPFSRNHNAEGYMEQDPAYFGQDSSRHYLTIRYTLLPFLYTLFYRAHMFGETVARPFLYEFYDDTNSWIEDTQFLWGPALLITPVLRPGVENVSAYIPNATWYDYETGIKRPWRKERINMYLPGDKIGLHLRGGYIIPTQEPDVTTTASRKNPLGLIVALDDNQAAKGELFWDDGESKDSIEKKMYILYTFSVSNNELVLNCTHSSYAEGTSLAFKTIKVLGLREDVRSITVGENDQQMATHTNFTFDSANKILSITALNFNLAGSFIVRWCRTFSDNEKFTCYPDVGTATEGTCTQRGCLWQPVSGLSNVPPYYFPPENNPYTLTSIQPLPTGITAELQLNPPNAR
- method: Intestinal α-glucosidase (sucrase) inhibition assay, rat intestinal acetone powder
- Format: biochemical
- condition_set: 54 mM sucrose, pH 6.9, 37 °C, 60 min; means ± S.E.M., n = 3
experimental_endpoint: IC50 (µM)
Answer in µM, number only, no unit symbol.

Item OC[C@H]1O[C@@H](Oc2cc3c(O)cc(O)cc3[o+]c2-c2ccc(O)c(O)c2)[C@H](O)[C@@H](O)[C@@H]1O [Cyanidin-3-glucoside, cyanidin-3-glucoside chloride] with intestinal sucrase (Rattus norvegicus, UniProt P23739) - IC50?
970

Below: the item to evaluate.
Item Oc1cc(O)c2cc(O)c(-c3ccc(O)c(O)c3)[o+]c2c1 [Cyanidin, Cyanidin chloride] with intestinal sucrase (Rattus norvegicus, UniProt P23739) - IC50?
1420

---

- assayed_system: porcine pancreatic α-amylase (Sus scrofa, UniProt P00690)
- Construct: purchased Sigma Chemical Co. Ltd. (St. Louis, MO)
- Sequence (P00690 16-511): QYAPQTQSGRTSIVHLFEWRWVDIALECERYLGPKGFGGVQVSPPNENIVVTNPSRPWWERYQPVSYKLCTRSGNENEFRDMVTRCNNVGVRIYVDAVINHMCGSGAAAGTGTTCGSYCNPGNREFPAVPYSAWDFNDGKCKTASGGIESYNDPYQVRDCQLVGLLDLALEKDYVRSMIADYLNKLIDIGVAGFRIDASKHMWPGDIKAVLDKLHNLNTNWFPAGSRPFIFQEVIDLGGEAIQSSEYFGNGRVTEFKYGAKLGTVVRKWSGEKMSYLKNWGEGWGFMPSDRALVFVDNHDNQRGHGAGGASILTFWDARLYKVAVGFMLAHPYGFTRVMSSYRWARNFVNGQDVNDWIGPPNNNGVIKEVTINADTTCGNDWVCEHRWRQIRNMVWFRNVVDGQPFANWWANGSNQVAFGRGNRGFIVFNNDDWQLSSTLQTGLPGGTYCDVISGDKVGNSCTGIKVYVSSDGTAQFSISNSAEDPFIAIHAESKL
- method: Pancreatic α-amylase inhibition assay (starch, DNS reagent)
- Format: biochemical
- condition_set: 1 g/L starch, amylase 3 U/mL, pH 6.9, 10 min; means ± S.E.M., n = 3
experimental_endpoint: IC50 (µM)
Answer in µM, number only, no unit symbol.

Tell me the measured IC50 of Oc1cc(O)c2cc(O)c(-c3ccc(O)c(O)c3)[o+]c2c1 [Cyanidin, Cyanidin chloride] , please.
380

***
Tell me the measured IC50 of OC[C@H]1O[C@@H](Oc2cc3c(O)cc(O)cc3[o+]c2-c2ccc(O)c(O)c2)[C@H](O)[C@@H](O)[C@@H]1O [Cyanidin-3-glucoside, cyanidin-3-glucoside chloride] , please.
300

---

- assayed_system: intestinal maltase
- method: Intestinal α-glucosidase (maltase) inhibition assay, rat intestinal acetone powder
- condition_set: 37 mM maltose, pH 6.9, 37 °C, 30 min; means ± S.E.M., n = 3
pIC50: −log10 of the molar value.
Measured pIC50, listed per entry for reference.

Here's what some known entries look like.
Tell me the measured pIC50 of Oc1cc(O)c2cc(O)c(-c3ccc(O)c(O)c3)[o+]c2c1 [Cyanidin, Cyanidin chloride] , please.
< 2.52

Try OC[C@H]1O[C@@H](Oc2cc3c(O[C@@H]4O[C@H](CO)[C@@H](O)[C@H](O)[C@H]4O)cc(O)cc3[o+]c2-c2ccc(O)c(O)c2)[C@H](O)[C@@H](O)[C@@H]1O [Cyanidin-3,5-diglucoside, cyanidin-3,5-diglucoside] next.
< 2.52

Try OC[C@H]1O[C@@H](Oc2cc3c(O)cc(O)cc3[o+]c2-c2ccc(O)c(O)c2)[C@H](O)[C@@H](O)[C@H]1O [Cyanidin-3-galactoside, cyanidin-3-galactoside chloride] next.
< 2.52

Try OC[C@H]1O[C@@H](Oc2cc3c(O)cc(O)cc3[o+]c2-c2ccc(O)c(O)c2)[C@H](O)[C@@H](O)[C@@H]1O [Cyanidin-3-glucoside, cyanidin-3-glucoside chloride] next.
< 2.52

Below: the item to evaluate.
Tell me the measured pIC50 of C[C@H]1O[C@H](O[C@H]2[C@H](O)[C@@H](O)[C@@H](O[C@H]3[C@H](O)[C@@H](O)C(O)O[C@@H]3CO)O[C@@H]2CO)[C@H](O)[C@@H](O)[C@@H]1N[C@H]1C=C(CO)[C@@H](O)[C@H](O)[C@H]1O (some centres unmarked) , please.
5.52
